target: PDE4A1A (Homo sapiens (Human)); test: PDE4 percent inhibition assay; format: biochemical; conditions: read-out: PDE4 Isoform % Inhibition @ 10 μM PDE4A1A
Sequence (P27815 other isoform, or with tags, fused parts or gaps): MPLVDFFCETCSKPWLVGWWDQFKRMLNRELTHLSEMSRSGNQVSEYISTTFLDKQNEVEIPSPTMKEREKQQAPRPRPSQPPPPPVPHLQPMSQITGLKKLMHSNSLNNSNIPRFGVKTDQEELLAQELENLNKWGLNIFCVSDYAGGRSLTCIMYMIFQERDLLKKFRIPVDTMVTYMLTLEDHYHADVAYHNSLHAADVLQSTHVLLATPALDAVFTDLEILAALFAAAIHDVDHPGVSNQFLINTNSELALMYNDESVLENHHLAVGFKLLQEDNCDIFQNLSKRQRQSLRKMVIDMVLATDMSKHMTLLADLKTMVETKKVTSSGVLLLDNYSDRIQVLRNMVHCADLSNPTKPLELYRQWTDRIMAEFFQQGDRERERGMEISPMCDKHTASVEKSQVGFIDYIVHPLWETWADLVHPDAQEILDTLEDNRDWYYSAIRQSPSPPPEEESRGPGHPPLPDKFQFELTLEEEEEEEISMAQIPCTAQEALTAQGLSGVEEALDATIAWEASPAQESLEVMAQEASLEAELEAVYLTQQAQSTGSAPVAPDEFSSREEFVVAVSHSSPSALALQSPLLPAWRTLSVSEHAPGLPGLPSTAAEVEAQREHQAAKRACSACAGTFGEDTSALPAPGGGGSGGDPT
Below is a list of entries, each paired with its recorded inhibition at 10 µM value.

Examples with their reported inhibition at 10 µM follow.
compound: COc1ccc([C@@]23CCN(C)[C@H]2CC(=O)[C@@H]2O[C@@H]23)cc1OC (racemic) [Compound 208]
inhibition at 10 µM: ≥ 70%
--
compound: COc1ccc([C@@]23CC[C@@H](n4cccn4)C[C@@H]2N(C)CC3)cc1OC [Compound 103]
inhibition at 10 µM: < 30%

Note: attention shifts to another entry.
Checklist item: inhibition at 10 µM tested on PDE4A1A (Homo sapiens (Human)), entry COc1ccc([C@@]23CC[C@H](n4cccn4)C[C@@H]2N(C)CC3)cc1OC [Compound 102] , value?
< 30%

Hey, just so you know, these numbers are from patent US20250059156A1.
